// data source = ChEMBL document CHEMBL5260810

Tested on: NCI-H1993
Assay notes: Cytotoxicity against human NCI-H1993 cells measured after 8 days
Format: functional, cell-based
Stated conditions: NCI-H1993, 192 h
Measurement name: IC50 (µM)
The figure you give is taken to be in µM; do not add the unit.

| Structure notation | Unit of measurement | Observed measurement |
| --- | --- | --- |
| C/C=C/Cn1cc(-c2ccc(C(C)(C)O)cc2OC)c2cc[nH]c2c1=O | µM | 20 |
| C/C=C/Cn1cc(-c2ccc(C(=O)N3CCOCC3)cc2)c2cc[nH]c2c1=O | µM | 20 |

Now, please, on to the next compound.
Measured on NCI-H1993, C/C=C/Cn1cc(-c2cc(OC)c(C(=O)N3CCOCC3)cc2OC)c2cc(C)[nH]c2c1=O has a documented IC50 of 2

###

Tested on: WM 266-4
Assay notes: Cytotoxicity against human WM266-4 cells measured after 8 days
Assay type: functional, cell-based
Stated conditions: WM 266-4, 192 h
Catalogue of pIC50 values
Entry type: numeric. Quantity: pIC50, the -log10 of concentration in molar units.

| Structure notation | pIC50 |
| --- | --- |
| C/C=C/Cn1cc(-c2ccc(C(C)(C)O)cc2OC)c2cc[nH]c2c1=O | 4.70 |

Field pIC50 (entry C/C=C/Cn1cc(-c2ccc(C(=O)N3CCOCC3)cc2)c2cc[nH]c2c1=O ) reads 4.70

###

pIC50 by entry:
Assay notes: Cytotoxicity against human MOLP8 cells measured after 8 days
Assay type: functional, cell-based
Stated conditions: MOLP-8, 192 h
Quick note: pIC50 values are minus log10 of concentrations in mol/L.

| Structure notation | Observed measurement |
| --- | --- |
| C/C=C/Cn1cc(-c2ccc(C(=O)N3CCOCC3)cc2)c2cc[nH]c2c1=O | 4.74 |

Proceed to the following item.
Item: C/C=C/Cn1cc(-c2ccc(C(C)(C)O)cc2OC)c2cc[nH]c2c1=O | pIC50: 4.70

###

Tested system: Histone acetyltransferase p300 (Homo sapiens, UniProt Q09472)
Sequence (Q09472 whole entry, the tested form may be a part): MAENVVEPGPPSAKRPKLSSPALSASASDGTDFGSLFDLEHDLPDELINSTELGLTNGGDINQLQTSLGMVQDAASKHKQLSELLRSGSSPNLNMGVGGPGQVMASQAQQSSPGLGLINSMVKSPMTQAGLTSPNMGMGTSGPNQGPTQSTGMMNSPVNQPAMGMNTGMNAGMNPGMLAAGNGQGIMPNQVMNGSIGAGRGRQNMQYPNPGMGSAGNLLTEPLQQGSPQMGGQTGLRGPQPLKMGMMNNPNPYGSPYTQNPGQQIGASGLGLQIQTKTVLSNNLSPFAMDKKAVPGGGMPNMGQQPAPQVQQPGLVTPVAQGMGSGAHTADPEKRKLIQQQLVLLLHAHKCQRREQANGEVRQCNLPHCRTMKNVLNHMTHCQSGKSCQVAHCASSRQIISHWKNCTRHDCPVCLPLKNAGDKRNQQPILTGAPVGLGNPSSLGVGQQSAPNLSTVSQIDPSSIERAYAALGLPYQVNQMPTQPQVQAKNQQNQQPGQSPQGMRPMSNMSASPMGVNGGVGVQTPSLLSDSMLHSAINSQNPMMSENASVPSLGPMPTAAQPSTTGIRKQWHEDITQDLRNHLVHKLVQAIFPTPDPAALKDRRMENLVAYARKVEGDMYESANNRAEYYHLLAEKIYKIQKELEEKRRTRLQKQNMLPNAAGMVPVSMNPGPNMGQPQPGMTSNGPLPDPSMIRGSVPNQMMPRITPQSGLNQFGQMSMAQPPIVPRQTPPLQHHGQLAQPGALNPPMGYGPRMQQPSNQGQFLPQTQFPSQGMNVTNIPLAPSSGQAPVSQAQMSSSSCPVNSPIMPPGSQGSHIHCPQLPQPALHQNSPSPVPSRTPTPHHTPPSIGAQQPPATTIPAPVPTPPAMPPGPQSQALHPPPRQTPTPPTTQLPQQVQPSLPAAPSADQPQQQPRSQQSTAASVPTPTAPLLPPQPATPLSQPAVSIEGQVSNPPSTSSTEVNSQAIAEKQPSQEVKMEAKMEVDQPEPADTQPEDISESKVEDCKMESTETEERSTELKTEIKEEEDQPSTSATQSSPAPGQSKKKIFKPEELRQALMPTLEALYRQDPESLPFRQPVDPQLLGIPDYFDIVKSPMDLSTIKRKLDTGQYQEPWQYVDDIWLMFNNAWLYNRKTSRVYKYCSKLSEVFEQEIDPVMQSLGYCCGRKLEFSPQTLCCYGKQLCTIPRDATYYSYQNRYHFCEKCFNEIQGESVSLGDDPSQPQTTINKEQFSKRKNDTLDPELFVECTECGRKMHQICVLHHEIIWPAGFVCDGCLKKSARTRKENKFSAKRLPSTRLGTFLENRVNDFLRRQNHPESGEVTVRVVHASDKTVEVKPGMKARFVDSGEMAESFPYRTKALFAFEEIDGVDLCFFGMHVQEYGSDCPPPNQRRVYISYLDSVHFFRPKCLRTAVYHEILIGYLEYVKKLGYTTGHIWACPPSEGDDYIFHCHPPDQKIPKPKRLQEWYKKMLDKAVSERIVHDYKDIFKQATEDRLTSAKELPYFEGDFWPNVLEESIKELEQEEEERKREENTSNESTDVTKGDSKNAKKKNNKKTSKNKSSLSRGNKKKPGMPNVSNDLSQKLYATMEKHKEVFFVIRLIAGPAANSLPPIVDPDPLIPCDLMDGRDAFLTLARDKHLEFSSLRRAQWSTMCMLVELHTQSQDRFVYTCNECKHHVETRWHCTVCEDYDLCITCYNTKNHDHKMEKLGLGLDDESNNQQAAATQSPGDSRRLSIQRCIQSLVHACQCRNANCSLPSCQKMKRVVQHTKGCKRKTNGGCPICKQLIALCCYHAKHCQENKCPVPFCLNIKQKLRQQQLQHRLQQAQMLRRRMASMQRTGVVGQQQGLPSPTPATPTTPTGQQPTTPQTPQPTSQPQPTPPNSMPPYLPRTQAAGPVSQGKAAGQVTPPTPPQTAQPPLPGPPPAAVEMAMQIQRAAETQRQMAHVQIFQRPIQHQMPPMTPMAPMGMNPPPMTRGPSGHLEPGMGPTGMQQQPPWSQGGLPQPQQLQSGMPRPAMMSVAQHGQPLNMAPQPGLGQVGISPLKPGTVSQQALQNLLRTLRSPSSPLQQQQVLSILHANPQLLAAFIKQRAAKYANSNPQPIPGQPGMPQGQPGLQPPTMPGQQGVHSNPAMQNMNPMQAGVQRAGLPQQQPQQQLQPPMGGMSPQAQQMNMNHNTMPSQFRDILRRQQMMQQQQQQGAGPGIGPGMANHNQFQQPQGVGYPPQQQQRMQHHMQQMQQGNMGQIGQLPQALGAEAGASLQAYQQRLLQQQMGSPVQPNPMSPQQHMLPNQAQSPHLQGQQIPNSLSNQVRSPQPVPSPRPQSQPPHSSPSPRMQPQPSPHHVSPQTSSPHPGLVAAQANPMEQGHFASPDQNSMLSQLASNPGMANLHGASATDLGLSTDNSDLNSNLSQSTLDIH
Assay notes: Binding affinity to human partial length EP300 (A1040 to G1161 residues) expressed in bacterial expression system by BROMOscan assay
Measurement name: Kd

Sample answers from the record:
| Structure notation | Kd |
| --- | --- |
| C/C=C/Cn1cc(-c2ccc(C(C)(C)O)cc2OC)c2cc[nH]c2c1=O | 4.5 µM |
| C/C=C/Cn1cc(-c2cc(OC)c(C(=O)N3CCOCC3)cc2OC)c2cc(C)[nH]c2c1=O | > 10 µM |
| C/C=C/Cn1cc(-c2ccc(C(=O)N3CCOCC3)cc2)c2cc[nH]c2c1=O | > 10 µM |

Attention now shifts to the item below.
Query C/C=C/Cn1cc(-c2cc(OC)c(C(C)(C)O)cc2OC)c2cc(C)[nH]c2c1=O yields Kd of > 10 µM

###

Test system: MX1
Assay notes: Cytotoxicity against human MX1 cells measured after 3 days
Format: functional, cell-based
Stated conditions: MX1, 72 h
Measurement name: IC50 (µM)
Express the result in µM but write the number alone.

Lab note: measured IC50 of C/C=C/Cn1cc(-c2cc(OC)c(C(=O)N3CCOCC3)cc2OC)c2cc(C)[nH]c2c1=O was 5

###

Assay notes: Cytotoxicity against human MDST8 cells measured after 8 days
Assay type: functional, cell-based
Stated conditions: MDST8, 192 h
Measurement name: IC50

| Structure notation | IC50 |
| --- | --- |
| C/C=C/Cn1cc(-c2ccc(C(C)(C)O)cc2OC)c2cc[nH]c2c1=O | 20 µM |
| C/C=C/Cn1cc(-c2ccc(C(=O)N3CCOCC3)cc2)c2cc[nH]c2c1=O | 20 µM |

Recorded result, C/C=C/Cn1cc(-c2cc(OC)c(C(=O)N3CCOCC3)cc2OC)c2cc(C)[nH]c2c1=O , IC50: 2 µM

###

As shown below, each of these compounds has a reported pKd value.
Tested system: Bromodomain-containing protein 3 (Homo sapiens)
Sequence (Q15059 whole entry, the tested form may be a part): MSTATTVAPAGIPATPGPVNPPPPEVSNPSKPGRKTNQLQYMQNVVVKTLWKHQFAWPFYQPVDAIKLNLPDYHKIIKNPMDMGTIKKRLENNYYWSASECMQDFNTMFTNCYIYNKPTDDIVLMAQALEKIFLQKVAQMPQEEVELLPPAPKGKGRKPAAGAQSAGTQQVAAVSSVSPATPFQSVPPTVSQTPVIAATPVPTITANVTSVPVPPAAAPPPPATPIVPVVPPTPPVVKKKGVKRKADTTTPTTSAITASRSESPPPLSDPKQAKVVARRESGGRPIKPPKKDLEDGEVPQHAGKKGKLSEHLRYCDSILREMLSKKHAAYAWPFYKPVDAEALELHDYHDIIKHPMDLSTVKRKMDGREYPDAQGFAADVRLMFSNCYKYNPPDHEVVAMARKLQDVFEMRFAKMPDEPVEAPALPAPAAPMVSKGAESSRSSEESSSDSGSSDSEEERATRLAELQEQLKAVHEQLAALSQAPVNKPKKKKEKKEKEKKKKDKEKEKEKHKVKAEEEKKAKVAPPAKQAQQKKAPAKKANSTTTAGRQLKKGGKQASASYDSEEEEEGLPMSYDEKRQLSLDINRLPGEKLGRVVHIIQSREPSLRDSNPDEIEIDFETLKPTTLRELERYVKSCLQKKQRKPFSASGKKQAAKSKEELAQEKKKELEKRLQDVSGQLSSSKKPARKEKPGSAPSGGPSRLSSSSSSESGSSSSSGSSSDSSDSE
Assay notes: Binding affinity to human partial length BRD3 bromodomain 2 (G306 to P416 residues) expressed in bacterial expression system by BROMOscan assay
// returns pKd (minus log10 of molar concentration), number only

| Structure notation | Observed measurement |
| --- | --- |
| C/C=C/Cn1cc(-c2ccc(C(=O)N3CCOCC3)cc2)c2cc[nH]c2c1=O | 5.36 |

Lab note: measured pKd of C/C=C/Cn1cc(-c2ccc(C(C)(C)O)cc2OC)c2cc[nH]c2c1=O was 5.40

###

Entries annotated with measured IC50
Assay notes: Cytotoxicity against human KPP14388 cells measured after 8 days
Assay type: functional, cell-based
Stated conditions: KPP14388, 192 h
Number only, in µM; omit the unit.

| Structure notation | IC50 (µM) |
| --- | --- |
| C/C=C/Cn1cc(-c2ccc(C(=O)N3CCOCC3)cc2)c2cc[nH]c2c1=O | 20 |

Now look at this one.
Measured IC50, C/C=C/Cn1cc(-c2ccc(C(C)(C)O)cc2OC)c2cc[nH]c2c1=O : 20

###

List of pIC50 values.
Assay notes: Cytotoxicity against human COV362 cells measured after 8 days
Type: functional, cell-based
Stated conditions: COV362, 192 h
Worth noting: pIC50 values are minus log10 of concentrations stated in mol/L.

| Structure notation | pIC50 |
| --- | --- |
| C/C=C/Cn1cc(-c2ccc(C(=O)N3CCOCC3)cc2)c2cc[nH]c2c1=O | 4.70 |

Lab book: pIC50 of C/C=C/Cn1cc(-c2ccc(C(C)(C)O)cc2OC)c2cc[nH]c2c1=O noted as 4.70

###

Tested on: NCI-H2405
Assay notes: Cytotoxicity against human NCI-H2405 cells measured after 8 days
Format: functional, cell-based
Stated conditions: NCI-H2405, 192 h
IC50 values by entry
Answer with a number only, understood to be in µM.

| Structure notation | Observed measurement |
| --- | --- |
| C/C=C/Cn1cc(-c2cc(OC)c(C(=O)N3CCOCC3)cc2OC)c2cc(C)[nH]c2c1=O | 2 |
| C/C=C/Cn1cc(-c2ccc(C(=O)N3CCOCC3)cc2)c2cc[nH]c2c1=O | 20 |

Alright, here's another compound for you.
The value of IC50 measured for the compound C/C=C/Cn1cc(-c2ccc(C(C)(C)O)cc2OC)c2cc[nH]c2c1=O turned out to be 20

###

System: DOHH-2
Assay notes: Cytotoxicity against human DOHH-2 cells measured after 8 days
Type: functional, cell-based
Stated conditions: DOHH-2, 192 h
Catalogue of IC50 readings, one per entry.
Unit µM implied. Number only.

| Structure notation | Unit of measurement | IC50 |
| --- | --- | --- |
| C/C=C/Cn1cc(-c2ccc(C(=O)N3CCOCC3)cc2)c2cc[nH]c2c1=O | µM | 16.1 |

Here is the next item to consider.
Reported IC50 (DOHH-2) for entry C/C=C/Cn1cc(-c2ccc(C(C)(C)O)cc2OC)c2cc[nH]c2c1=O is 10.7

###

Assay notes: Cytotoxicity against human NCI-H196 cells measured after 8 days
Format: functional, cell-based
Stated conditions: NCI-H196, 192 h
Here, each record is paired with measured IC50 data.
Give the quantity in µM, number only.

| Structure notation | IC50 (µM) |
| --- | --- |
| C/C=C/Cn1cc(-c2ccc(C(C)(C)O)cc2OC)c2cc[nH]c2c1=O | 20 |

Please look at the following compound next.
The value of IC50 measured for the compound C/C=C/Cn1cc(-c2ccc(C(=O)N3CCOCC3)cc2)c2cc[nH]c2c1=O turned out to be 20

###

pKd for assorted molecules
Tested system: Bromodomain-containing protein 4 (Homo sapiens, UniProt O60885)
Assay notes: Binding affinity to BRD4 bromodomain 1/2 long isoform (unknown origin) by BROMOscan assay
Just the number, please; pKd means minus log10 of the concentration in mol/L.

| Structure notation | Tested system | Measurement name | Observed measurement |
| --- | --- | --- | --- |
| C/C=C/Cn1cc(-c2ccc(C(=O)N3CCOCC3)cc2)c2cc[nH]c2c1=O | Bromodomain-containing protein 4 (Homo sapiens, UniProt O60885) | pKd | 5.06 |

Next up:
The recorded pKd for entry C/C=C/Cn1cc(-c2ccc(C(C)(C)O)cc2OC)c2cc[nH]c2c1=O equals 5.77

###

System: A549
Assay notes: Cytotoxicity against human A549 cells measured after 8 days
Type: functional, cell-based
Stated conditions: A549, 192 h
The reader will find reported pIC50 values listed item by item below.
pIC50 field: float, defined as -log10 of concentration (mol/L).

| Structure notation | Observed measurement |
| --- | --- |
| C/C=C/Cn1cc(-c2ccc(C(=O)N3CCOCC3)cc2)c2cc[nH]c2c1=O | 4.70 |

Lookup result for C/C=C/Cn1cc(-c2cc(OC)c(C(=O)N3CCOCC3)cc2OC)c2cc(C)[nH]c2c1=O ; measured pIC50: 5.70

The measured pIC50 associated with C/C=C/Cn1cc(-c2ccc(C(C)(C)O)cc2OC)c2cc[nH]c2c1=O reads 4.70
